# Test system: TTR
# test_summary: TTR editing in primary human hepatocytes transfected with Spy Cas9 protein and sgRNAs (Table 12)
# Type: cell-based
# run_parameters: primary human hepatocytes transfected with Spy Cas9 protein (RNP) and sgRNAs
Strand notation (5' to 3'): a small letter for the sugar, then the base; units joined by * are phosphorothioate-linked, units joined directly phosphodiester-linked; [ ] holds rarer units or linkages, { } end groups; capitals alone tell only the bases. m = 2'-O-methyl; r = 2'-OH (RNA)
value_kind: Avg % Insert (%)
Form entry: value (%) — number only.

Query: Please supply the value of reported Avg % Insert for the item G000484: TTR sgRNA modified sequence, Human, SEQ ID No. 91; guide sequence of CR003367 (nucleic acid) guide: mA*mG*mA*rCrArCrCrArArArUrCrUrUrArCrUrGrGrArGrUrUrUrUrArGrAmGmCmUmAmGmAmAmAmUmAmGmCrArArGrUrUrArArArArUrArArGrGrCrUrArGrUrCrCrGrUrUrArUrCrAmAmCmUmUmGmAmAmAmAmAmGmUmGmGmCmAmCmCmGmAmGmUmCmGmGmUmGmCmU*mU*mU*mU
Reply: 29.23

Query: Please supply the value of reported Avg % Insert for the item G000491: TTR sgRNA modified sequence, Human, SEQ ID No. 98; guide sequence of CR003338 (nucleic acid) guide: mA*mU*mA*rCrCrArGrUrCrCrArGrCrArArGrGrCrArGrGrUrUrUrUrArGrAmGmCmUmAmGmAmAmAmUmAmGmCrArArGrUrUrArArArArUrArArGrGrCrUrArGrUrCrCrGrUrUrArUrCrAmAmCmUmUmGmAmAmAmAmAmGmUmGmGmCmAmCmCmGmAmGmUmCmGmGmUmGmCmU*mU*mU*mU
Reply: 70.27

Query: Please supply the value of reported Avg % Insert for the item G000492: TTR sgRNA modified sequence, Human, SEQ ID No. 99; guide sequence of CR003342 (nucleic acid) guide: mC*mU*mU*rCrUrCrUrArCrArCrCrCrArGrGrGrCrArCrGrUrUrUrUrArGrAmGmCmUmAmGmAmAmAmUmAmGmCrArArGrUrUrArArArArUrArArGrGrCrUrArGrUrCrCrGrUrUrArUrCrAmAmCmUmUmGmAmAmAmAmAmGmUmGmGmCmAmCmCmGmAmGmUmCmGmGmUmGmCmU*mU*mU*mU
Reply: 57.90

Query: Please supply the value of reported Avg % Insert for the item G000494: TTR sgRNA modified sequence, Human, SEQ ID No. 101; guide sequence of CR003360 (nucleic acid) guide: mG*mU*mG*rArGrUrCrUrGrGrArGrArGrCrUrGrCrArUrGrUrUrUrUrArGrAmGmCmUmAmGmAmAmAmUmAmGmCrArArGrUrUrArArArArUrArArGrGrCrUrArGrUrCrCrGrUrUrArUrCrAmAmCmUmUmGmAmAmAmAmAmGmUmGmGmCmAmCmCmGmAmGmUmCmGmGmUmGmCmU*mU*mU*mU
Reply: 61.47

Source listed as patent US11795460B2.
